- Test system: PC-3 prostate
- TEST NAME: NCI-60 one-dose screen, 48 h (100 = growth as untreated, 0 = no growth, -100 = all killed)
- COND: 10 µM unless noted
The panel holds about 83,000 compounds, 20% with a hit somewhere; the sample as a whole holds those more often. The source made the active and inactive calls. The calls were made as follows: active = growth percent below 10; inactive = the rest.
PROPERTY MEASURED: growth

Request: Supply growth value. Item: O=C(O/C(=C/c1ccccc1)C(F)(F)F)c1ccccc1
Response: 104% (inactive)

Request: Supply growth value. Item: CO[C@H](C(=O)[C@@H](O)[C@@H](C)O)[C@@H]1Cc2cc3cc(O[C@H]4C[C@@H](O[C@H]5C[C@@H](O)[C@H](O)C(C)O5)[C@H](O)C(C)O4)c(C)c(O)c3c(O)c2C(=O)[C@H]1O[C@H]1C[C@@H](O[C@H]2C[C@@H](O[C@H]3C[C@](C)(O)C(=O)C(C)O3)[C@@H](O)C(C)O2)[C@H](O)C(C)O1 (some centres undefined)
Response: 6.86% (active)

Request: Supply growth value. Item: C=C1C(=O)O[C@H]2[C@H]1CC/C(COC(=O)NCc1[nH]nc3ccccc13)=C\CC[C@@]1(C)O[C@@H]21
Response: 28.8% (inactive)

Request: Supply growth value. Item: Cc1cc(C#Cc2ccc(C(C)(C)C)cc2)ccc1-n1c(/C=C/c2c(Cl)cccc2Cl)nc2ccccc2c1=O
Response: 80.8% (inactive)

Request: Supply growth value. Item: Clc1ccc(C2=NN[C@H](c3cn(-c4ccccc4)nc3-c3ccccc3)C2)cc1
Response: 36.7% (inactive)

Request: Supply growth value. Item: O=[N+]([O-])c1ccc(SSc2ccc([N+](=O)[O-])cc2Cl)c(Cl)c1
Response: 93.2% (inactive)

Request: Supply growth value. Item: CCNC(=O)c1ccc2c(c1)nc(-c1ccc(Cl)cc1)n2-c1cc(C(C)(C)C)[nH]n1
Response: 44% (inactive)

Request: Supply growth value. Item: CCCCCCCCCCCC1=NC(C)(C)CN1C(C)C
Response: 34.6% (inactive)

Request: Supply growth value. Item: CCC1N=C(N)N=C(N)N1c1ccc(Cl)cc1 (centres undefined)
Response: 62.6% (inactive)

Request: Supply growth value. Item: O=C(CCCCCCN1CC(=O)N2[C@@H](c3ccc(Cl)c(Cl)c3)c3[nH]c4ccccc4c3C[C@H]2C1=O)NO
Response: 25.7% (inactive)

Request: Supply growth value. Item: C(=Nc1ccc(-c2ccc(N=Cc3ccccc3)cc2)cc1)c1ccccc1
Response: 80.3% (inactive)

Request: Supply growth value. Item: COc1cnc2c(c1)C(=O)c1c-2n(CCCN2CCNCC2)c(=O)c2cc(Cl)ccc12
Response: -84% (active)

Request: Supply growth value. Item: S=C(Nc1ccc(Cl)cc1)Nc1ccc(Cl)cc1 (tested in a mixture with another compound)
Response: 3.81% (active)

Request: Supply growth value. Item: C[C@@H]1N=C(c2ccc3ccccc3c2)Nc2nc3ccccn3c2C1=O
Response: 52% (inactive)

Request: Supply growth value. Item: Clc1ccc(Cl)c(N=Cc2ccc3c(c2)OCO3)c1
Response: 107% (inactive)

Request: Supply growth value. Item: ClCCn1cnc2c(SCc3ccccc3Cl)ncnc21
Response: 38.7% (inactive)

Request: Supply growth value. Item: CC(=O)O[C@H]1CC[C@]2(C)[C@H]3CC=C4[C@@H]5CC(C)(C)CC[C@]5(C(=O)OCC(COC(=O)C(Cl)Cl)(COC(=O)C(Cl)Cl)NC(=O)C(Cl)Cl)CC[C@@]4(C)[C@]3(C)CC[C@H]2C1(C)C
Response: 22.7% (inactive)

Request: Supply growth value. Item: Cc1ccc(C(=O)CC(=O)C(F)(F)C(F)(F)C(F)(F)F)s1
Response: 92.8% (inactive)

Request: Supply growth value. Item: CCn1c(Cc2ccccc2Nc2c(Cl)cccc2Cl)nnc1SCC(=O)Nc1ccccc1C(F)(F)F
Response: 67.4% (inactive)

Request: Supply growth value. Item: O=C(/C=C/c1ccccc1Br)c1cccc(OCCCCOc2cccc(C(=O)/C=C/c3ccccc3Br)c2)c1
Response: 92% (inactive)

Request: Supply growth value. Item: C=CCCCCOc1cccc(/C=C2\N=C3SCCCN3C2=O)c1
Response: 95.3% (inactive)

Request: Supply growth value. Item: CCOCCNc1ccc(S(=O)(=O)c2ccc(N)cc2)cc1N
Response: 111% (inactive)

Request: Supply growth value. Item: O=S1(=O)NCCCN1CCNc1nccc(-c2c(-c3cccc(O)c3)nc3sccn23)n1
Response: 106% (inactive)

Request: Supply growth value. Item: CN1CCC2(CC1)N=C(SCC(=O)Nc1cnc3ccccc3c1)C(c1ccc(Br)cc1)=N2
Response: 21.3% (inactive)

Request: Supply growth value. Item: Nc1c(C(=O)Nc2ccccc2)sc2nc3c(cc12)C(=O)CCC3
Response: 21.6% (inactive)

Request: Supply growth value. Item: N/C(=N\OC(=O)c1ccccc1)C(Cc1ccccc1)C(=O)NOC(=O)c1ccccc1 (centres undefined)
Response: 43% (inactive)

Request: Supply growth value. Item: N/C(=N\O)c1ncc(-c2ccc(C(F)(F)F)cc2)c(NC2CCCCCC2)n1
Response: -88.9% [100 µM] (active)

Request: Supply growth value. Item: COc1cc([N+](=O)[O-])cc(OC)c1OC
Response: 94.9% (inactive)

Request: Supply growth value. Item: COc1ccc(/C=C/C(=O)CCC(=O)O)cc1OC
Response: 111% (inactive)
